Values compiled from PubChem BioAssay AID743443.

biological target: Sphingosine 1-phosphate receptor 5 (Homo sapiens); test: antagonism at human S1PR5 – cell-based, FRET, dose response, selectivity assay for S1PR3 antagonist project, late-stage follow-up (AID 743443); settings: S1P5 FRET cell-based antagonist assay
Calls of active or inactive are those of the source. No rule for the calls is given here.
Result category, one only: 1 for active, -1 for inactive

Check out these entries, answers already filled in.
compound="O=C(NC(c1ccc(Cl)c(Cl)c1)c1nc(-c2ccccc2)no1)c1ccccc1 (stereo unspecified)" tested_on="Sphingosine 1-phosphate receptor 5 (Homo sapiens)" answer_label=-1
compound="O=C(NC(c1ccc(Cl)cc1)c1nc(-c2ccccn2)no1)c1cccc(Cl)c1 (stereo unspecified)" tested_on="Sphingosine 1-phosphate receptor 5 (Homo sapiens)" answer_label=-1
compound="O=C(NC(c1ccccc1)c1nc(-c2ccccc2)no1)c1cccc(Cl)c1 (stereo unspecified)" tested_on="Sphingosine 1-phosphate receptor 5 (Homo sapiens)" answer_label=-1
compound="O=C(NC(c1ccc(Cl)cc1)c1nc(-c2ccccc2)no1)c1cccc(Cl)c1 (stereo unspecified)" tested_on="Sphingosine 1-phosphate receptor 5 (Homo sapiens)" answer_label=-1

Name the outcome recorded for O=C(NC(c1cccc(Cl)c1)c1nc(-c2ccccc2)no1)c1cccc(Cl)c1 (stereo unspecified) in the assay. 1

====

molecular target: Sphingosine 1-phosphate receptor 5 (Homo sapiens); assay: antagonism at human S1PR5 – cell-based, FRET, dose response, selectivity assay for S1PR3 antagonist project, late-stage follow-up (AID 743443); conditions: S1P5 FRET cell-based antagonist assay
Active and inactive are the calls of the source. How the calls were made is not given here.
MEASURED_PARAMETER: IC50

Consider the worked cases shown below.
compound="O=C(NC(c1ccccc1)c1nc(-c2ccccc2)no1)c1ccc(Cl)cc1 (centres undefined)" result="> 28.2 µM (inactive)"
compound="O=C(NC(c1cccc(Cl)c1)c1nc(-c2ccccc2)no1)c1ccc(Cl)c(Cl)c1 (centres undefined)" result="> 28.2 µM (inactive)"
compound="N#Cc1ccc(C(=O)NC(c2ccc(Cl)c(Cl)c2)c2nc(-c3ccccc3)no2)cc1 (centres undefined)" result=inactive
compound="O=C(NC(c1ccc(Cl)c(Cl)c1)c1nc(-c2ccccc2)no1)c1cccc(Cl)c1 (centres undefined)" result=inactive
compound="O=C(NC(c1ccc(Cl)cc1)c1nc(-c2cccc(Cl)c2)no1)c1cccc(Cl)c1 (centres undefined)" result="> 28.2 µM (inactive)"

Now for a further compound.
What value of IC50 on Sphingosine 1-phosphate receptor 5 (Homo sapiens) does O=C(NC(c1ccc(Cl)cc1)c1nc(-c2ccccc2)no1)c1ccc(Cl)c(Cl)c1 (centres undefined) have? > 28.2 µM (inactive)

====

target: Sphingosine 1-phosphate receptor 5 (Homo sapiens) (UniProt Q9H228); test: antagonism at human S1PR5 – cell-based, FRET, dose response, selectivity assay for S1PR3 antagonist project, late-stage follow-up (AID 743443); details: S1P5 FRET cell-based antagonist assay
Sequence (Q9H228 whole entry, looked up): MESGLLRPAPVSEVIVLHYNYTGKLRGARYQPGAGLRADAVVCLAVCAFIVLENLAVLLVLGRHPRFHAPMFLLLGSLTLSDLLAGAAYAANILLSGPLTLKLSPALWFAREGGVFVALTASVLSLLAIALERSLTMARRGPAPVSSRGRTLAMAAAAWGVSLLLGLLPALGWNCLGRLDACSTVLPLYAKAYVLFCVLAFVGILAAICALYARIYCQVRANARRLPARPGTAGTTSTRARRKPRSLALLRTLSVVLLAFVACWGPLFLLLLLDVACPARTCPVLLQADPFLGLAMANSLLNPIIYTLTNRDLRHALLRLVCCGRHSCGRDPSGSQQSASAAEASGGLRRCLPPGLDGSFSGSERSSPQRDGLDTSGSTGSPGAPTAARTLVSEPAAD
Calls of active or inactive are those of the source. How the calls were made is not given here.
Result category, one only: active, inactive

Name the outcome recorded for O=C(NC(c1ccc(Cl)c(Cl)c1)c1nc(-c2ccccc2)no1)c1ccc(Cl)c(Cl)c1 (stereo unspecified) in the assay. inactive

Continue with O=C(NC(c1ccccc1)c1nc(-c2ccccc2)no1)c1cccc(Cl)n1 (stereo unspecified) inactive

Continue with O=C(NC(c1ccc(Cl)cc1)c1nc(-c2ccccc2)no1)c1ccc(Cl)c(Br)c1 (stereo unspecified) inactive

Continue with O=C(NC(c1ccc(Cl)c(Cl)c1)c1nc(-c2ccccc2)no1)c1ccc(Cl)cc1 (stereo unspecified) inactive

Continue with O=C(NC(c1cccc(Cl)c1)c1nc(-c2ccccc2)no1)c1cc(Cl)cc(Cl)c1 (stereo unspecified) inactive

Continue with CCc1ccc(C(NC(=O)c2cccc(Cl)c2)c2nc(-c3ccccc3)no2)cc1 (stereo unspecified) inactive

Continue with O=C(c1cccc(Cl)c1)N(CCO)C(c1ccc(Cl)c(Cl)c1)c1nc(-c2ccccc2)no1 (stereo unspecified) active

Continue with COc1ccc(C(=O)NC(c2ccccc2)c2nc(-c3ccccc3)no2)cc1 (stereo unspecified) inactive

Continue with O=C(NC(c1ccccc1)c1nc(-c2ccccc2)no1)c1cccc(Br)c1 (stereo unspecified) inactive

Continue with O=C(NC(Cc1ccccc1)c1nc(-c2ccccc2)no1)c1cccc(Cl)c1 (stereo unspecified) inactive

Continue with O=C(NC(c1nc(-c2ccccc2)no1)C1CCOCC1)c1ccc(Cl)c(Cl)c1 (stereo unspecified) inactive
